# T/C values compiled below
# Test system: P388 leukemia ip, CD2F1 mice, survival T/C
# TEST: NCI In Vivo Anticancer Drug Screen. Data for tumor model P388 Leukemia (intraperitoneal) in CD2F1 (CDF1) mice
# ASSAY_SETUP: endpoint: median survival time; dose: 25.0 mg/kg/injection; schedule: Q01DX005 (ip); vehicle: saline with Tween-80; higher = longer survival
Inconclusive results and toxic doses are left out.

Use the examples below as a reference point.
- SMILES_RECORD: "CN1C(=O)/C(=C\\c2ccccc2)N=C(c2ccccc2)c2cc(Cl)ccc21"
  T/C: "110 % of control"
- SMILES_RECORD: "Cc1ccc(-[n+]2c3cc(N)c(C)cc3nc3cc(C)c(Nc4ccccc4)cc32)cc1"
  T/C: "101 % of control"
- SMILES_RECORD: "CCOC(=O)c1ccc(N2N=C3C(=CC(=O)c4ccccc43)SCC2=O)cc1"
  T/C: "117 % of control"

Now turn to the next compound.
The compound listed as CSC(=S)N/N=C(\Cc1ccccc1)c1ccccn1 shows T/C equal to 106 % of control

FYI, the data here is from PubChem BioAssay AID330.
